testDetails: chemical genetic growth profiling, strain panel (AID 1159580);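 also: tested at 20 µM; growth read once vehicle control cultures reached saturation at 30 °C; 1 = growth at the plate median or of vehicle wells; lower values mean less growth of the strain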
conditionContext: S. cerevisiae deletion strains, growth OD, locus YNL298W, strain CLA4, stronger effect = lower value
The campaign covered roughly 5,500 compounds. About 2,000 (36%) were called active. Another 18% or so got no clear call; they are omitted. The list shows a part of the results.
endpointName: normalized growth

>>> assayvalue("O=c1cc(-c2cc(O)c(O)c(O)c2)oc2cc(O)cc(O)c12")
0.985
>>> assayvalue("Cc1nc2ccccn2c(=O)c1CCN1CCC(C(=O)c2ccc(F)cc2)CC1")
0.987
>>> assayvalue("Cc1cc(O)c(C=O)c2c1C(=O)Oc1c(COC(=O)/C=C/C(=O)O)c(O)c(C(=O)O)c(C)c1O2")
0.966
>>> assayvalue("NC(N)=O")
1
>>> assayvalue("Cc1cc(=O)oc2c(O)c(O)ccc12")
0.991
>>> assayvalue("N[C@H](Cc1ccccc1)C(=O)O")
1.02
